Biological target: EML4-ALK (Homo sapiens, UniProt Q9UM73)
Construct: endogenous in cells; host or cells: H3122 (NSCLC), single-cell clone after CRISPR knock-in of HiBit; the other entry of the earlier key: EML4 (Q9HC35, Echinoderm microtubule-associated protein-like 4)
Sequence (Q9UM73 with tags, fused parts or gaps): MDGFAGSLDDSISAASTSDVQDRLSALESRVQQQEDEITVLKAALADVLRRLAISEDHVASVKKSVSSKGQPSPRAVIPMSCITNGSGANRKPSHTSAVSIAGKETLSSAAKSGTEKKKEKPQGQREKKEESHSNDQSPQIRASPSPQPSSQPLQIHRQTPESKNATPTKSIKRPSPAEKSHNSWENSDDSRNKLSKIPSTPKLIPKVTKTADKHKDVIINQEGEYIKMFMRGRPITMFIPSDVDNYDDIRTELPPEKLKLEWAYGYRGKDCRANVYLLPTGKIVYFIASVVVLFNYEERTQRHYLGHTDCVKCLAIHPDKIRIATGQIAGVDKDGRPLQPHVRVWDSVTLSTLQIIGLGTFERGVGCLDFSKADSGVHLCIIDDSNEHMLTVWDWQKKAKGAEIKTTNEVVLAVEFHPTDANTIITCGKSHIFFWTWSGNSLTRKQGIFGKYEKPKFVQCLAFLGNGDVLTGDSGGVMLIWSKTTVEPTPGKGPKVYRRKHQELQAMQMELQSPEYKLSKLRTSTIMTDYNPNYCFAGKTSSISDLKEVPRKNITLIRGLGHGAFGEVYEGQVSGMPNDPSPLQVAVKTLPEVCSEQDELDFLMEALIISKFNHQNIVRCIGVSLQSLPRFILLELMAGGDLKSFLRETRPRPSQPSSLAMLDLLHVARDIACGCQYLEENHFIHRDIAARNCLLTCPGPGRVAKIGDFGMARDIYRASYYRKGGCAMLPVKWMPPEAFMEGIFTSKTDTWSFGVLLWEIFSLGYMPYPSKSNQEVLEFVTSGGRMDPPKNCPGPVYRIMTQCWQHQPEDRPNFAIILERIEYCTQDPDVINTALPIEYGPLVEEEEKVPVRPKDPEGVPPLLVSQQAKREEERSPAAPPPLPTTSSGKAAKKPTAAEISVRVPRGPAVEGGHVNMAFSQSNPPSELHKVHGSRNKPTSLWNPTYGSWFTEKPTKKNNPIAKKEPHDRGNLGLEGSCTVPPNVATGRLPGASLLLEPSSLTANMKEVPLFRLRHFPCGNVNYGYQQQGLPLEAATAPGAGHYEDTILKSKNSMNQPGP
Experiment: EML4-ALK HiBit degradation assay in CRISPR-tagged H3122 cells (Nano-Glo HiBit Lytic Detection)
Assay type: cell-based
Conditions: NCI-H3122, Table 1, second Dmax column; H3122 EML4-ALK-HiBit, 16 hours; read-out: Degradation Dmax
Protocol: NSCLC cell line H3122 was subjected to CRISPR to express EML4-ALK with HiBit-tag on its c-terminal. Single-cell clone was selected and expanded for the following assays that monitor endogenous EML4-ALK level in high throughput manner. […] HiBit signal was assessed using Nano-Glo® HiBit Lytic Detection System (Promega™). […] NSCLC cell line H3122 was subjected to CRISPR to express EML4-ALK with HiBit-tag on its c-terminus. […] HiBit signal was assessed using Nano-Glo® HiBit Lytic Detection System (Promega™). […]
outcomeMeasure: Dmax (%)

# molecule, Dmax (%)
data = [
    ("COc1cc(CCN(C)C(=O)CCCCCNC(=O)COc2cccc3c2C(=O)N(C2CCC(=O)NC2=O)C3=O)c(C)cc1Nc1ncc(Cl)c(Nc2ccccc2S(=O)(=O)C(C)C)n1 (stereo not shown) [compound 6]", 30.4),
]

(1) CN[C@@H](C)C(=O)N[C@H](C(=O)N1Cc2cc(OCCCCCNCCc3cc(OC)c(Nc4ncc(Cl)c(Nc5ccccc5S(=O)(=O)C(C)C)n4)cc3C)ccc2C[C@H]1C(=O)N[C@H]1CCCc2ccccc21)C(C)(C)C [Compound 39]
(2) COc1cc(CCN(C)C(=O)CCOCCOCCNc2cccc3c2C(=O)N(C2CCC(=O)NC2=O)C3=O)c(C)cc1Nc1ncc(Cl)c(Nc2ccccc2S(=O)(=O)C(C)C)n1 (stereo not shown) [compound 4]
(3) COc1cc(CCN(C)C(=O)CCOCCC(=O)N[C@H](C(=O)N2C[C@H](O)C[C@H]2C(=O)N[C@@H](C)c2ccc(-c3scnc3C)cc2)C(C)(C)C)c(C)cc1Nc1ncc(Cl)c(Nc2ccccc2S(=O)(=O)C(C)C)n1 [compound 52]
Prompt: Order by Dmax, ascending. Put the labels in the order asked and list them.
Completion: 2, 3, 1
(2: 33%, 3: 49.4%, 1: 99.3%)

* * *

target: EML4-ALK (Homo sapiens, UniProt Q9UM73); construct: endogenous in cells; host or cells: H3122 (NSCLC), single-cell clone after CRISPR knock-in of HiBit; the other entry of the earlier key: EML4 (Q9HC35, Echinoderm microtubule-associated protein-like 4); assay: EML4-ALK HiBit degradation assay in CRISPR-tagged H3122 cells (Nano-Glo HiBit Lytic Detection); type: cell-based; conditions: NCI-H3122, Table 1; average Dmax; read-out: Degradation Avg. Dmax
outcomeMeasure: Dmax (%)

# compound, number
records = [
    ("COc1cc(CCNCCOCCOCCC(=O)N[C@H](C(=O)N2C[C@H](O)CC2C(=O)N[C@@H](C)c2ccc(-c3scnc3C)cc2)C(C)(C)C)c(C)cc1Nc1ncc(Cl)c(Nc2ccccc2S(=O)(=O)C(C)C)n1 (some centres unmarked) [Compound 46]", 51.3),
    ("COc1cc(CCN(C)C(=O)CCOCCC(=O)N[C@H](C(=O)N2C[C@H](O)C[C@H]2C(=O)N[C@@H](C)c2ccc(-c3scnc3C)cc2)C(C)(C)C)c(C)cc1Nc1ncc(Cl)c(Nc2ccccc2S(=O)(=O)C(C)C)n1 [compound 52]", 52.1),
    ("COc1cc(CCN(C)C(=O)CCCC#Cc2cccc3c2C(=O)N(C2CCC(=O)NC2=O)C3=O)c(C)cc1Nc1ncc(Cl)c(Nc2ccccc2S(=O)(=O)C(C)C)n1 (centres unmarked) [compound 9]", 54.1),
    ("COc1cc(CCNCCCCCC(=O)N[C@H](C(=O)N2C[C@H](O)C[C@H]2C(=O)N[C@@H](C)c2ccc(-c3scnc3C)cc2)C(C)(C)C)c(C)cc1Nc1ncc(Cl)c(Nc2ccccc2S(=O)(=O)C(C)C)n1 [Compound 44]", 53),
    ("COc1cc(CCNCCCCCOc2cc(-c3scnc3C)ccc2[C@H](C)NC(=O)[C@@H]2C[C@@H](O)CN2C(=O)[C@@H](NC(C)=O)C(C)(C)C)c(C)cc1Nc1ncc(Cl)c(Nc2ccccc2S(=O)(=O)C(C)C)n1 [Compound 53]", 66.5),
]

* * *

molecular target: EML4-ALK (Homo sapiens, UniProt Q9UM73); construct: endogenous in cells; host or cells: H3122 (NSCLC), single-cell clone after CRISPR knock-in of HiBit; the other entry of the earlier key: EML4 (Q9HC35, Echinoderm microtubule-associated protein-like 4); experiment: EML4-ALK HiBit degradation assay in CRISPR-tagged H3122 cells (Nano-Glo HiBit Lytic Detection); format: cell-based; details: NCI-H3122, Table 2, first Dmax column; H3122 EML4-ALK-HiBit, 16 hours; read-out: Degradation Dmax
outcomeMeasure: Dmax (%)

// worked examples, Dmax included
# compound, number
rows = [
    ("CC[C@@H](NC(=O)[C@@H]1C[C@H](NC(=O)CCCCCCCC(=O)N(C)CCc2cc(OC)c(Nc3ncc(Cl)c(Nc4ccccc4P(C)(C)=O)n3)cc2C)CN1C(=O)[C@@H](NC(=O)[C@H](C)NC)C(C)(C)C)c1ccccc1 [compound 75]", 42.1),
    ("COc1cc(CCN(C)C(=O)CCCCCNc2cccc3c2C(=O)N(C2CCC(=O)NC2=O)C3=O)c(C)cc1Nc1ncc(Cl)c(Nc2ccccc2P(C)(C)=O)n1 (centres unmarked) [Compound 65]", 26.2),
    ("COc1cc(CCN(C)C(=O)CCOCCC(=O)N[C@H](C(=O)N2C[C@H](O)C[C@H]2C(=O)N[C@@H](C)c2ccc(-c3scnc3C)cc2)C(C)(C)C)c(C)cc1Nc1ncc(Cl)c(Nc2ccccc2P(C)(C)=O)n1 [compound 71]", 50.9),
]

(A) COc1cc(CCNCCCCCSC(C)(C)C(NC(C)=O)C(=O)N2C[C@H](O)C[C@H]2C(=O)N[C@@H](C)c2ccc(-c3scnc3C)cc2)c(C)cc1Nc1ncc(Cl)c(Nc2ccccc2P(C)(C)=O)n1 (some centres unmarked) [Compound 73]
(B) COc1cc(CCN(C)C(=O)CCCCCCCCNc2cccc3c2C(=O)N(C2CCC(=O)NC2=O)C3=O)c(C)cc1Nc1ncc(Cl)c(Nc2ccccc2P(C)(C)=O)n1 (centres unmarked) [Compound 66]
Prompt: Please choose the item with the lower Dmax value from this pair: A and B Answer format: the label of the selected item.
Completion: B
(B: 23.6%, A: 59.6%)

* * *

target: EML4-ALK (Homo sapiens); construct: endogenous in cells; host or cells: H3122 (NSCLC), single-cell clone after CRISPR knock-in of HiBit; the other entry of the earlier key: EML4 (Q9HC35, Echinoderm microtubule-associated protein-like 4); assay: EML4-ALK HiBit degradation assay in CRISPR-tagged H3122 cells (Nano-Glo HiBit Lytic Detection); assay type: cell-based; details: NCI-H3122, Table 2, second Dmax column; H3122 EML4-ALK-HiBit, 16 hours; read-out: Degradation Dmax
outcomeMeasure: Dmax (%)

(P) COc1cc(CCNCCCCCSC(C)(C)C(NC(C)=O)C(=O)N2C[C@H](O)C[C@H]2C(=O)N[C@@H](C)c2ccc(-c3scnc3C)cc2)c(C)cc1Nc1ncc(Cl)c(Nc2ccccc2P(C)(C)=O)n1 (stereo partly drawn)
(Q) COc1cc(CCN(C)C(=O)CCCC#Cc2cccc3c2C(=O)N(C2CCC(=O)NC2=O)C3=O)c(C)cc1Nc1ncc(Cl)c(Nc2ccccc2P(C)(C)=O)n1 (stereo not drawn)
Prompt: Please choose the item with the lower Dmax value from this pair: P and Q Answer format: the label of the selected item.
Completion: Q

* * *

molecular target: EML4-ALK (Homo sapiens); construct: endogenous in cells; host or cells: H3122 (NSCLC), single-cell clone after CRISPR knock-in of HiBit; the other entry of the earlier key: EML4 (Q9HC35, Echinoderm microtubule-associated protein-like 4); experiment: EML4-ALK HiBit degradation assay in CRISPR-tagged H3122 cells (Nano-Glo HiBit Lytic Detection); format: cell-based; conditions: NCI-H3122, Table 2, first Dmax column; H3122 EML4-ALK-HiBit, 16 hours; read-out: Degradation Dmax
outcomeMeasure: Dmax (%)

# compound, outcomeMeasure, unitTag, number
data = [
    ("COc1cc(CCNCCCC(=O)N[C@H](C(=O)N2C[C@H](O)C[C@H]2C(=O)N[C@@H](C)c2ccc(-c3scnc3C)cc2)C(C)(C)C)c(C)cc1Nc1ncc(Cl)c(Nc2ccccc2P(C)(C)=O)n1 [Compound 72]", "Dmax", "%", 37.9),
]

(P) COc1cc(CCN(C)C(=O)CCOCCOCCOCC#Cc2cccc3c2C(=O)N(C2CCC(=O)NC2=O)C3=O)c(C)cc1Nc1ncc(Cl)c(Nc2ccccc2P(C)(C)=O)n1 (stereo not drawn) [Compound 63]
(Q) CC[C@@H](NC(=O)[C@@H]1C[C@H](NC(=O)CCCCCCC(=O)N(C)CCc2cc(OC)c(Nc3ncc(Cl)c(Nc4ccccc4P(C)(C)=O)n3)cc2C)CN1C(=O)[C@@H](NC(=O)[C@H](C)NC)C(C)(C)C)c1ccccc1 [Compound 74]
Prompt: Which numeric Dmax is bigger, that of P or that of Q ? Answer format: the label of the selected item.
Completion: Q

These measurements were taken from patent US20230158157A1.
